Attribution: patent US8133849B2

Test system: Ipomea hederaceae
Experiment: Example B2 herbicidal action, post-emergence, pots in glasshouse, damage score 0-10
Format: in vivo
Conditions: application post-emergence, rate 1000 g/ha, evaluated after 13 days
# maps each entry to its IPOHE damage score (10=total damage to plant; 0=no damage to plant)

Here's what some known entries look like.
CC(C)C(=O)OC1=C(c2ccccc2C(F)(F)F)S(=O)(=O)N(CC(F)F)c2nccnc21 [Compound C61] | 10
CCN1c2nccnc2C(OS(=O)(=O)C(F)(F)F)=C(c2ccc(Cl)cc2C(F)(F)F)S1(=O)=O [Compound C29] | 5
CC(C)C(=O)OC1=C(c2cc(C(F)(F)F)ccc2Cl)S(=O)(=O)N(CC(Cl)Cl)c2nccnc21 [Compound C115] | 6

With those in mind, consider the next molecule.
Incoming: I'd like to know its IPOHE damage score (10=total damage to plant; 0=no damage to plant). The molecule in question is O=S1(=O)C(c2c(C(F)(F)F)cccc2C(F)(F)F)=C(O)c2nccnc2N1CC(F)F [Compound D42]
Outgoing: 9
